Experiment: A quantitative high throughput screen for small molecules that induce DNA re-replication in MCF 10a normal breast cells. Also: nearly all actives have a fitted effect of over 50% in size.
Details: MCF 10A DNA re-replication, Hoechst nuclear intensity, 48 h; series mostly up to 46.1 µM
Out of some 350,000 compounds screened, about 9,900 (2.8%) were called active. Not shown: some 15% with an inconclusive outcome. Calls follow the shape of the dose curve; as a rule, active = well fitted activation curve with a large enough effect; inconclusive = small, poorly fitted or top-dose-only effect; inactive = no such curve, though single readings can be large or run the other way. This excerpt belongs to a sample that is enriched for actives.
Pick one: active, inactive

Known results for molecules:
molecule | class_label
O=S(=O)(NCCCCCCNS(=O)(=O)c1c(F)cccc1F)c1ccc2c(c1)OCCO2 | inactive
CN=C(Nc1cccc(S(=O)(=O)N2CCOCC2)c1)c1ccccc1 | inactive
CN1CCOC1c1ccc(C2OCCN2C)cc1 (configuration not stated) | inactive
N#Cc1ccc(CN2CCN(CC(=O)Nc3ccccc3C(=O)NC3CC3)CC2)cc1 | inactive
CC1(C)CC(=O)C=C(c2ccc3ncccc3c2)C1 | inactive

Record request — test call for CCN(CC(=O)Nc1ccccc1C(=O)NC1CC1)Cc1cccs1
inactive

Record request — test call for Cn1c(N)c(C(=O)COC(=O)COc2ccc(Cl)cc2)c(=O)n(C)c1=O
inactive

Record request — test call for CSCCC(NS(=O)(=O)c1ccc(C)cc1)C(=O)N(C)CC(=O)Nc1ccccc1Br (configuration not stated)
inactive

Record request — test call for Cc1ccc2c(c1)C1C[N+](C)(CC(=O)c3ccccc3)CCC1N2C(=O)c1ccccc1Cl (configuration not stated)
inactive

Record request — test call for O=C(CN1C(=O)NC2(CCOc3ccccc32)C1=O)Nc1cccc([N+](=O)[O-])c1 (configuration not stated)
inactive

meta.source: PubChem BioAssay AID624296
